System: OVCAR-4 ovarian
Test: NCI tumour cell line growth inhibition, 48 h
reported endpoint: TGI

Consider the worked cases shown below.
>  <compound>
CC1C(c2ccc(N(C)C)cc2)c2cc3c(cc2OC1N1CCCC1)OCO3 (stereo not given)

>  <TGI>
> 100 µM

$$$$
>  <compound>
CCOc1ccc(NC(=O)Nc2cc(C(C)C)ccc2C)cc1

>  <TGI>
11.5 µM

$$$$
>  <compound>
OCC1SC(n2cnc3cncnc32)C(O)C1O (stereo not given)

>  <TGI>
> 100 µM

$$$$

Here are 5 compounds. What values of TGI were reported for them?
1. O=S(=O)(O)c1cc(Cl)c(O)c2ncc(Cl)cc12
2. COc1ccc2c(O)c3[n+](cc2c1OC)CCc1cc2c(cc1-3)OCO2
3. CC1(C)CCc2c(cc3c(c2O)CCC(C)(C)O3)O1
4. CN(C)CCC1(C2=CCCC2)CC/C(=C\c2ccc3c(c2)OCO3)C1=O (stereo not given)
5. C[N+]1(C)CC=C(N2CCOCC2)CC1

## Result
> 100 µM
> 100 µM
> 100 µM
27.1 µM
> 10 µM

Hey, can you go through the list below and give me TGI for every item?
1. c1cc(-c2cscc2-c2ccsc2)cs1
2. C=C1C(=O)O[C@H]2[C@H]1CC/C(COC(=O)OCCCCCOC(=O)OC/C1=C/CC[C@@]3(C)O[C@H]3[C@H]3OC(=O)C(=C)[C@@H]3CC1)=C\CC[C@@]1(C)O[C@@H]21

## Result
1: > 100 µM; 2: 2.15 µM

---

Tested on: HOP-92 NSCLC
Test: NCI tumour cell line growth inhibition, 48 h
reported endpoint: TGI

>  <compound>
O=S(=O)(O)c1cc(Cl)c(O)c2ncc(Cl)cc12

>  <study target>
HOP-92 NSCLC

>  <result>
> 100 µM

$$$$
>  <compound>
CC(C)(C)c1nc2c(o1)C(=Nc1ccccc1)c1ccccc1C2=O

>  <study target>
HOP-92 NSCLC

>  <result>
23.8 µM

$$$$
>  <compound>
O=C1C=C(SCCO)C(=O)c2ccccc21

>  <study target>
HOP-92 NSCLC

>  <result>
3.01 µM

$$$$
>  <compound>
COc1ccc(-c2cc(C(=O)Nc3cccc(C(F)(F)F)c3)[nH]c(=S)n2)cc1

>  <study target>
HOP-92 NSCLC

>  <result>
> 100 µM

$$$$
>  <compound>
COc1ccc2c(c1O)-c1c(OC)c(OC)cc3c1[C@H](C2)[N+](C)(C)CC3

>  <study target>
HOP-92 NSCLC

>  <result>
> 100 µM

$$$$

Below is a list of compounds. For each, state its recorded TGI.
1. N#Cc1c(-c2ccco2)c2c(n(C3OC(CO)C(O)C(O)C3O)c1=S)CCCC2 (stereo not given)
2. CN(C)CCNC(=O)c1ccc2ccc3cccnc3c2n1
3. NC1=CN(CCCO)C2=N/C(=C\c3ccco3)C(=O)N12
4. CO/C(=N\N=C(/C)C(F)(F)F)c1ccncc1
5. CCCCCCCCCCCCNC(=O)NCC(OCC)OCC

## Result
1: > 100 µM; 2: 65.2 µM; 3: > 100 µM; 4: > 100 µM; 5: > 10 µM

---

System: CAKI-1 renal
Assay: NCI tumour cell line growth inhibition, 48 h
reported endpoint: TGI

Solved cases below.
>  <compound>
C/C(=N\Nc1nc2cc(C)ccc2s1)c1ccccn1

>  <TGI>
9.18 µM

$$$$
>  <compound>
COCCNCC(O)Cn1c2ccc(Cl)cc2c2cc(Cl)ccc21 (stereo not given)

>  <TGI>
3.36 µM

$$$$
>  <compound>
O=C(NC1CCCCC1)c1c(O)[nH]c(=S)[nH]c1=O

>  <TGI>
> 100 µM

$$$$
>  <compound>
O=c1[nH]cnc2c1nnn2CCCn1nnc2c(=O)[nH]cnc21

>  <TGI>
> 100 µM

$$$$

Give me TGI for each of these compounds, listed below.
1. CCOc1ccc(NC(=O)Nc2cc(C(C)C)ccc2C)cc1
2. CN(C)CCNC(=O)c1ccc2ccc3cccnc3c2n1

## Result
1. 28.2 µM
2. > 85.5 µM

Working through the 6 compounds below one at a time, give TGI for each.
1. Brc1c[n+](Cc2ccc3ccccc3c2)cn1Cc1ccc2ccccc2c1
2. COc1ccc(C2CC(c3cc4c(C)c(C(=O)c5ccccc5)oc4cc3O)=Nc3ccccc3S2)cc1OC (stereo not given)
3. Fc1cccc(F)c1C1SCC2=Nc3ccccc3CN21 (stereo not given)
4. C=C1C(=O)O[C@@H]2C[C@]3(C)[C@@H](C[C@H]12)[C@](C)(O)CC[C@@H]3O
5. COC(=O)[C@]1(C)CCCn2c(=O)n(-c3ccccc3)c(=O)n21
6. COc1cc(OC)c(-c2cc(=O)c3c(OC)c(OC)c(OC)c(OC)c3o2)cc1OC

## Result
["5.17 µM", "> 100 µM", "> 100 µM", "> 100 µM", "> 100 µM", "> 100 µM"]
